Cited source: ChEMBL document CHEMBL2218924

Molecular target: Serine/threonine-protein kinase ULK2 (Homo sapiens) (UniProt Q8IYT8)
Sequence (whole entry): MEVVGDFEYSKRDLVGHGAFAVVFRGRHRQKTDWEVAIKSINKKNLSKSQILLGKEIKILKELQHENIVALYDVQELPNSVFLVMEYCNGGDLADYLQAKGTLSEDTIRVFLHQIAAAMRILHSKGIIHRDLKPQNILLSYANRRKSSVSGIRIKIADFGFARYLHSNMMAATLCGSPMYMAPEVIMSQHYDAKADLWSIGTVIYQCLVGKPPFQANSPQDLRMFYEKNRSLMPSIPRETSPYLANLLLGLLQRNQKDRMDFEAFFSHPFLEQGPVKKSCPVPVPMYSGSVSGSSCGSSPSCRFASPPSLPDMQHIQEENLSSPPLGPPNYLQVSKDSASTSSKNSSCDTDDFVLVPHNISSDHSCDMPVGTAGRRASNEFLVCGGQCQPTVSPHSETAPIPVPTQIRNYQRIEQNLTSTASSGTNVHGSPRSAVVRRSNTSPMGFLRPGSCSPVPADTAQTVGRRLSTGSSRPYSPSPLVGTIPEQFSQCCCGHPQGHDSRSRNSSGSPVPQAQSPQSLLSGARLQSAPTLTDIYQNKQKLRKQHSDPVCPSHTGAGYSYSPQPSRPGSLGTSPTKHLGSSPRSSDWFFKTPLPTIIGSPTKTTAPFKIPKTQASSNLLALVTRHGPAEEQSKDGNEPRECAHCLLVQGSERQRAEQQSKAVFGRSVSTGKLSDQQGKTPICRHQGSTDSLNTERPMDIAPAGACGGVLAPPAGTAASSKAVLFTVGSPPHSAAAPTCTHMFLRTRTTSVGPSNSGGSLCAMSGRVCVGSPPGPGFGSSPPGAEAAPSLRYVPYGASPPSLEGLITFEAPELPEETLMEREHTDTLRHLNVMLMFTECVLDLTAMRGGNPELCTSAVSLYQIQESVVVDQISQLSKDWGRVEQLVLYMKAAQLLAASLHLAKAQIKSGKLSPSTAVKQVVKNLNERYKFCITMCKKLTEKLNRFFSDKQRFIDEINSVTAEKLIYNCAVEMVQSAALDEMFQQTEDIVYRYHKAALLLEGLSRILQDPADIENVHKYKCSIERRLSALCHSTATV
Settings: at 10 µM
Measure Name: residual activity (%)
Answer in %, number only, no unit symbol.

These recorded examples may help you get a feel for the data.
compound=O=c1cc(-c2cccc3c2Sc2ccccc2S3)oc(N2CCOCC2)c1 output_unit=% experimental_result=101
compound=Cc1ccc(S(=O)(=O)/C=C/C#N)cc1 output_unit=% experimental_result=104
compound=O=C1Nc2cc(Br)ccc2/C1=C1/Nc2ccccc2/C1=N\O output_unit=% experimental_result=98
compound=N#CCCc1ccc2c(c1)-c1[nH]c3ccc([N+](=O)[O-])cc3c1CC(=O)N2 output_unit=% experimental_result=21
compound=CC(C)n1cnc2c(NCc3ccccc3)nc(NCCCO)nc21 output_unit=% experimental_result=101

Reported residual activity for CC(C)n1cnc2/c(=N/c3cccc(Cl)c3)nc(NCCO)[nH]c21 : what is it?
31

Also, CN(C)CCCn1cc(C2=C(c3c[nH]c4ccccc34)C(=O)NC2=O)c2ccccc21 please.
88
